Data provenance is the Biogen ADME set (Fang et al. 2023).

Quantity name: fraction unbound, rat plasma

Before answering, review these 3 worked examples.
# Compound, fraction unbound, rat plasma
records = [
    ("CC#CC(=O)N1CC[C@@H](n2cc(-c3ccc(Oc4c(F)cccc4F)cc3)c3c(N)n[nH]c(=O)c32)C1", 0.00935),
    ("Cc1cc(F)ccc1C1C(=O)NCCN1C(=O)c1ccc2nccn2c1 (configuration not stated)", 0.893),
    ("Cc1c(Cl)ccc2cc3n(c12)[C@@H](C)CNC3=O", 0.0497),
]

Please find the next compound below.
What does the record list as fraction unbound, rat plasma for CC(C)(Oc1ccc(-c2cnc(N)c(-c3ccc(Cl)cc3)c2)cc1)C(=O)O ?
0.0004

* * *

Quantity name: log10 of intrinsic clearance, rat liver microsomes (log10 of the value in mL/min/kg)
Short version: log10 scale, intrinsic clearance, rat liver microsomes, mL/min/kg.

# Input smiles, Readout value
data = [
    ("Cc1cccnc1NC(=O)c1csc(-c2ccccc2)n1", 2.66),
    ("CC(=O)N1CCC[C@H]1C(=O)Nc1cccc(OC(F)F)c1", 1.50),
]

Look up log10 of intrinsic clearance, rat liver microsomes for this compound: O=C(Nc1ccc2[nH]ncc2c1)[C@H]1CCCNC1
2.54

Fill in the blank: the reported log10 of intrinsic clearance, rat liver microsomes of CC(C)=CCOc1cccc(C(=O)NN2CCOCC2)c1 is ____.
2.77

Quick one: log10 of intrinsic clearance, rat liver microsomes of Nc1ncccc1OCc1cccc(Cl)c1 ?
2.86

Quick one: log10 of intrinsic clearance, rat liver microsomes for CCOc1ccc(CN[C@@H]2CCC[C@H]2Cc2cc(C)no2)cc1OC ?
3.35

* * *

Response key: 1 means MDR1-MDCK efflux ratio >= 0.7; -1 means MDR1-MDCK efflux ratio < 0.7.

Below, 2 molecules whose answers are already recorded.
# Molecule, Assigned label
rows = [
    ("COc1cc(F)c(NCC(=O)Nc2ccc(C)cc2)cc1OC", -1),
    ("CC(C)CC(NC(=O)C(O)C(N)Cc1ccccc1)C(=O)O (stereo unspecified)", 1),
]

Reported MDR1-MDCK efflux ratio at or above 0.7? Nc1nc(CN2CCN(c3ccc(F)cc3)CC2)cs1
-1

# check: MDR1-MDCK efflux ratio of CC(C)CNc1nnc(SCc2ccncc2)s1 is greater than or equal to 0.7
1

Does CC(C)c1nc(NCc2cccnc2)n(C)n1 have a reported MDR1-MDCK efflux ratio of at least 0.7?
1

* * *

Assign class 1 whenever MDR1-MDCK efflux ratio does not fall below 1; assign class 0 whenever it does.

Example entries begin here.
# Input smiles, Assigned label
records = [
    ("COc1cc2cc3c(nc2cc1OC)OCCN(C1CCCCC1)C3", "class 1"),
    ("COc1ccc(C)cc1-n1ccc(C(=O)NC(C)C)n1", "class 0"),
    ("CCCc1noc2nc(-c3ccncc3)cc(C(=O)O)c12", "class 0"),
    ("CN(Cc1cccc(Cl)c1Cl)Cc1cc(=O)n(C)c(=O)n1C", "class 0"),
]

From here, focus on the item given below.
Reported MDR1-MDCK efflux ratio reaches at least 1 for Cc1nnc(-c2ccccc2NCc2ccsc2)o1 ?
class 0

* * *

Quick list: MDR1-MDCK efflux ratio per entry.
Number only, no unit.

Example cases with answers are listed next.
# Molecule, MDR1-MDCK efflux ratio
records = [
    ("O=C(O)c1cnc(/C=C/c2csc(-c3ccsc3)n2)s1", 0.832),
    ("CCCc1ccc(C(=O)CSc2nncs2)cc1", 0.471),
    ("CN(Cc1ccccc1N1CCCC1)C(=O)c1cccc(Cn2ccnc2)c1", 21.7),
    ("O=C(Nc1ccccc1)c1sc(N2CCOCC2)nc1-c1ccccc1", 0.494),
    ("Cc1nc2ccccc2c(N)c1C(=O)/C=C/c1ccccc1", 0.244),
]

May I ask what MDR1-MDCK efflux ratio has been recorded for COc1ccc(-c2ccc(CN(CCN(C)C)Cc3ccncc3)cc2)cc1 ?
2.06

Requested field: MDR1-MDCK efflux ratio. Item: Cn1c(=O)c2c(nc3n2CCN3Cc2c(F)cccc2Cl)n(C)c1=O
1.27

Query: MDR1-MDCK efflux ratio; subject: COc1ccc(N2N=C(C)/C(=C(\C)Nc3ccc(S(N)(=O)=O)cc3)C2=O)cc1
41.1
